The origin of these recorded values is patent US20150302167A1.

experimental_details: Published clinical trial data of RA drugs: ACR20/ACR50/ACR70 response, drug vs placebo
Format: in vivo, human
stated_conditions: Type: Diff. (drug minus placebo); * significant difference > 15%
Excerpt: In another embodiment, American College of Rheumatoid (ACR) scoring system and DAS28 scoring system are used to determine the extent of improvement in the RA disease symptoms on treatment with a drug. In another embodiment, the ACR scoring system involves three main scores: ACR20 score pertaining to 20% improvement in the disease, ACR50 score pertaining to 50% improvement in the disease and ACR70 score pertaining to 70% improvement in the disease. […]
Answer each item with its documented ACR70 Diff..

Exercise: Can you look up the measured ACR70 Diff. of "DENOSUMAB" for me?
Key: <0%

Exercise: What about "SECUKINUMAB" ?
Key: 0%

Exercise: What about "RITUXIMAB" ?
Key: 15* %

Exercise: What about "ANAKINRA" ?
Key: 4%

Exercise: What about "TOCILIZUMAB" ?
Key: 21* %

Exercise: What about "ETANERCEPT" ?
Key: 28* %
